Target: CDK9 (Homo sapiens)
Construct: endogenous in cells; host or cells: MDA-MB-231
Sequence (P50750 whole entry): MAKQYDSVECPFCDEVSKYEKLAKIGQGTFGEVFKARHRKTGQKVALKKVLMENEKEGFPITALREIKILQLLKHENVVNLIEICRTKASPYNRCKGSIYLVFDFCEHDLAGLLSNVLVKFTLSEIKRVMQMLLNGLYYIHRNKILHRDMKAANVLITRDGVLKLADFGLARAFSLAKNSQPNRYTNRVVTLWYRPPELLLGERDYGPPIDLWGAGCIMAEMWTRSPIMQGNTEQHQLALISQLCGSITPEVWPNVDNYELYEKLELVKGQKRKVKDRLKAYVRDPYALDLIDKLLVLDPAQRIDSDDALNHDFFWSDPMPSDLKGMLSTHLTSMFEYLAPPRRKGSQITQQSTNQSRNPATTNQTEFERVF
Assay: CDK protein degradation activity (Western blotting), CDK9
Format: cell-based
Conditions: MDA-MB-231 cells, 1 μM, 16 hours, Western blot
Enzyme degradation CDK9 (% remaining) @ 1 μM values, listed per item

O=C1CC[C@H](N2C(=O)c3ccc(N4CCC(CC(=O)N5CCN(c6ccc(Nc7ncnc8c7ncn8[C@H]7C[C@@H](NC(=O)Cc8ccccc8)C7)cc6)CC5)CC4)cc3C2=O)C(=O)N1 [Compound 216]	50/50/50%
O=C1CC[C@H](N2C(=O)c3ccc(N4CCC(C(=O)N5CCC(CN6CCN(c7ccc(Nc8ncnc9c8ncn9C8CC(NC(=O)Cc9ccccc9)C8)cc7)CC6)CC5)CC4)cc3C2=O)C(=O)N1 (some centres unmarked) [Compound 330]	0/0/0%
O=C1CC[C@H](N2C(=O)c3ccc(N4CCC(C(=O)N5CCC(CCCN6CCN(c7ccc(Nc8ncnc9c8ncn9C8CC(NC(=O)Cc9ccccc9)C8)cc7)CC6)CC5)CC4)cc3C2=O)C(=O)N1 (some centres unmarked) [Compound 354]	10/10/10%
O=C1CC[C@H](N2C(=O)c3cc(F)c(N4CCC(C(=O)N5CCC(CN6CCN(c7ccc(Nc8ncnc9c8ncn9[C@H]8C[C@@H](NC(=O)c9c(Cl)cccc9Cl)C8)cc7)CC6)CC5)CC4)cc3C2=O)C(=O)N1 [Compound 462]	0/0/0%

Now for the compound whose Enzyme degradation CDK9 (% remaining) @ 1 μM we want.
// fetch CDK9 (Homo sapiens) Enzyme degradation CDK9 (% remaining) @ 1 μM for Cc1cccc(C(=O)NC2CC(n3cnc4c(NCCC5CCN(CC6CCN(CC7CN(c8ccc9c(c8)C(=O)N([C@H]8CCC(=O)NC8=O)C9=O)C7)CC6)CC5)ncnc43)C2)n1 (some centres unmarked) [Compound 402]
0/0/0%

* * *

Parameter: Enzyme degradation CDK2 (% remaining) @ 10 μM. Scope: all listed entries.
Target: CDK2 (Homo sapiens)
Construct: endogenous in cells; host or cells: MDA-MB-231
Assay: CDK protein degradation activity (Western blotting), CDK2
Type: cell-based
Conditions: MDA-MB-231 cells, 10 μM, 16 hours, Western blot

Cc1cccc(C(=O)N[C@H]2C[C@@H](n3cnc4c(Nc5ccc(N6CCN(CCC7CCN(C(=O)COc8ccc([C@@H]9CCC(=O)NC9=O)cc8)CC7)CC6)cc5)ncnc43)C2)n1	30/30/30%
O=C1CC[C@@H](c2ccc(OCC(=O)N3CCC4(CC3)CC(N3CCN(c5ccc(Nc6ncnc7c6ncn7[C@H]6C[C@@H](NC(=O)c7cccc(C(F)(F)F)n7)C6)cc5)CC3)C4)cc2)C(=O)N1	50/50/50%
O=C1CC[C@H](N2C(=O)c3cccc(NCC(=O)N4CCC(CCCN5CCN(c6ccc(Nc7ncnc8c7ncn8[C@H]7C[C@@H](NC(=O)Cc8ccccc8)C7)cc6)CC5)CC4)c3C2=O)C(=O)N1	20/—/20%
N#Cc1cccc(C(=O)N[C@H]2C[C@@H](n3cnc4c(Nc5ccc(N6CCN(CC7CCN(c8cc9c(cc8F)C(=O)N(C8CCC(=O)NC8=O)C9=O)CC7)CC6)cc5)ncnc43)C2)n1 (some centres unmarked)	20/20/20%

// moving on: another record for Enzyme degradation CDK2 (% remaining) @ 10 μM
Lookup: Enzyme degradation CDK2 (% remaining) @ 10 μM / CDK2 (Homo sapiens) / O=C1CCC(N2C(=O)c3ccc(N4CCC(C(=O)N5CCC(CN6CCN(c7ccc(Nc8ncnc9c8ncn9[C@H]8C[C@@H](NC(=O)c9cccc(Cl)n9)C8)cc7)CC6)CC5)CC4)cc3C2=O)C(=O)N1 (some centres unmarked)
30/30/30%
